// data source = paper PMC5030144

- system: RMS3 (Pisum sativum)
- Sequence (A0A109QYD3 1-267): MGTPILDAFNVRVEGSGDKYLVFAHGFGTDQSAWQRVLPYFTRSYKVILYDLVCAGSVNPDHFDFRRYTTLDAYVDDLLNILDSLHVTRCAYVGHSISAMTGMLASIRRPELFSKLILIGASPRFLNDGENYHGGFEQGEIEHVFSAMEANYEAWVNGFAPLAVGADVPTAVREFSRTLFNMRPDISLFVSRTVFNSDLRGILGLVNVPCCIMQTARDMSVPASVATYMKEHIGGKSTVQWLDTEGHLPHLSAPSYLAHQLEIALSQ
- run-description: Intrinsic tryptophan fluorescence, apparent dissociation coefficient
- Format: binding
- setup-conditions: apparent Kd from intrinsic fluorescence, mean ± SE of two replicates
parameter-measured: pKd
Give bare numbers, as −log10 of the molar value.

Would you please look over these solved cases?
>  <molecule>
O=C1C=CC(OC=C2C(=O)OC3c4ccccc4CC23)O1 (racemic) [(±)-4’-desmethyl-2’-epi-GR24]

>  <pKd>
3.53

$$$$
>  <molecule>
O=C1OC2c3ccccc3CC2/C1=C\O (racemic) [(±)-ABC]

>  <pKd>
3.57

$$$$

Continue with the next molecule.
## Task Which pKd value belongs to CC1=C(C)C(OC=C2C(=O)OC3c4ccccc4CC23)OC1=O (racemic) [(±)-3’-Me-GR24] ?
## Result 4.51
